# measured-target: human recombinant HDAC1 (Homo sapiens, UniProt Q13547)
# Sequence (Q13547 whole entry): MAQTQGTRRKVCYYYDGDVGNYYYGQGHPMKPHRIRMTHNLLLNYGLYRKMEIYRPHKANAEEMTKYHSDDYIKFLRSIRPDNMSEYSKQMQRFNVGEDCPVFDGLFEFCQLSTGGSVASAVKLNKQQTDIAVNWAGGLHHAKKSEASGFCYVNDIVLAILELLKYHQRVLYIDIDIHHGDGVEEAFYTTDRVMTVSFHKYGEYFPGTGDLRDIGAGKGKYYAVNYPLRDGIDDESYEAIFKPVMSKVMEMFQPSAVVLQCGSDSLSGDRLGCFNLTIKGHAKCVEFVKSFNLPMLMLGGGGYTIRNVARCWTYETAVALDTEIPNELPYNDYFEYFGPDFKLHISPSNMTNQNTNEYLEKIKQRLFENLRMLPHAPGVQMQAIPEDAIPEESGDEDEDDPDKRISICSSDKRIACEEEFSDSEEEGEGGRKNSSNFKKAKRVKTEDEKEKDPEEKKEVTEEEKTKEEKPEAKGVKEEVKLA
# protocol-description: HDAC1 enzyme activity inhibition assay (HDAC Fluorimetric Drug Discovery Kit)
# experimental-setup: 0.3 μg enzyme, 10 μM substrate, 30° C., 60 minutes
assay-endpoint: IC50 (µM)
Numbers only, in µM.

Record IC50 per entry; entries follow.
1. O=C(c1cncn1CCS(=O)(=O)N(Cc1ccc(-c2nnc(C(F)F)o2)cc1)c1ccccc1)C(F)F
2. CCS(=O)(=O)N(Cc1ccc(-c2nnc(C(F)F)o2)cn1)c1ccc(Cl)c(Cl)c1

1. 54.6
2. 51.4

====

# measured-target: human recombinant HDAC6 (Homo sapiens, UniProt Q9UBN7)
# Construct: purchased Calbiochem 382180
# Sequence (Q9UBN7 1-1215): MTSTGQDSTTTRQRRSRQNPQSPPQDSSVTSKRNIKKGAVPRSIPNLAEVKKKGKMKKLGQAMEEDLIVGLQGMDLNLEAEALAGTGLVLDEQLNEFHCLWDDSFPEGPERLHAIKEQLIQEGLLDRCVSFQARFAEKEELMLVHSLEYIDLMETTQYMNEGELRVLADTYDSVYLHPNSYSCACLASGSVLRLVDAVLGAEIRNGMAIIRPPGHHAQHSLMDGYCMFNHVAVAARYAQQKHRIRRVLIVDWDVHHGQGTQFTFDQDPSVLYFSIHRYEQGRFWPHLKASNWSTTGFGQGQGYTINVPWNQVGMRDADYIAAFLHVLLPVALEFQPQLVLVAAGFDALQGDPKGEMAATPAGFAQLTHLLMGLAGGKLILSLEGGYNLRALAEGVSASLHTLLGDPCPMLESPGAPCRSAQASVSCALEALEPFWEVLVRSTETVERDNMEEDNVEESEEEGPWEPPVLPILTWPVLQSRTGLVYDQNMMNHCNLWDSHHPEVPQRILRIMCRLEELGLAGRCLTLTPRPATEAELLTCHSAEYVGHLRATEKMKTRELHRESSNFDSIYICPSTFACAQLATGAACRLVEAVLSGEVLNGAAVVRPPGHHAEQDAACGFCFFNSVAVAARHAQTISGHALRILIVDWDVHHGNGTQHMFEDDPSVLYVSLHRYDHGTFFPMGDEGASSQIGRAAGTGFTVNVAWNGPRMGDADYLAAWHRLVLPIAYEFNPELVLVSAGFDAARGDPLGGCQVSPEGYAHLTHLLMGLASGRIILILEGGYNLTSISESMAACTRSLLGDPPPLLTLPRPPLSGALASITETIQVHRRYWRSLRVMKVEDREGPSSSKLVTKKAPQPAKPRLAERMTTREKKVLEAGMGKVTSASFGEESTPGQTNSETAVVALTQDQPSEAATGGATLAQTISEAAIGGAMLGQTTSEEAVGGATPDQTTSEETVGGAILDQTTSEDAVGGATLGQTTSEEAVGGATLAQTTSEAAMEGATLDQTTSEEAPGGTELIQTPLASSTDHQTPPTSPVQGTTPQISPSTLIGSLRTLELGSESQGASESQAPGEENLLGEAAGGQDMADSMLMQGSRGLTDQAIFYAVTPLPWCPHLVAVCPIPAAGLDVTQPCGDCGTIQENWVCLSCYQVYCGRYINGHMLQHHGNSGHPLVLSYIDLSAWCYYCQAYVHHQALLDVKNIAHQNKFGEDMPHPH
# protocol-description: HDAC6 enzyme activity inhibition assay (HDAC Fluorimetric Drug Discovery Kit)
# Type: biochemical
# experimental-setup: HDAC1 vs HDAC6
Respond with met for HDAC6 selectivity (fold) values of 2000 fold and above, not met for values below.

Worked set:
Does HDAC6 selectivity (fold) meet or surpass 2000 fold for CS(=O)(=O)N(Cc1ccc(-c2nnc(C(F)(F)F)o2)cn1)c1cccc(C(F)(F)F)c1 ?
not met

Given the entry CS(=O)(=O)N(Cc1ccc(-c2nnc(C(F)F)o2)cc1F)c1ccccc1C(F)(F)F , answer whether its HDAC6 selectivity (fold) meets or surpasses 2000 fold.
not met

Does CC(=O)N1CC(N2CCC(S(=O)(=O)N(Cc3ccc(-c4nnc(C(F)F)o4)cc3F)c3ccc(F)c(Cl)c3)CC2)C1 have a reported HDAC6 selectivity (fold) of at least 2000 fold?
met

Please indicate if the recorded HDAC6 selectivity (fold) for Cc1cccc(N(Cc2ccc(-c3nnc(C(F)F)o3)cn2)S(=O)(=O)C2CCN([C@H]3CC[C@H](F)CC3)CC2)c1 meets or exceeds 2000 fold.
not met

Answer whether HDAC6 selectivity (fold) of O=S(=O)(C1CCN(C2CC(O)C2)CC1)N(Cc1ccc(-c2nnc(C(F)F)o2)cn1)c1ccccc1 (stereo not shown) is greater than or equal to 2000 fold.
met

---
Kindly determine if HDAC6 selectivity (fold) recorded for COc1ccccc1N(Cc1ccc(-c2nnc(C(F)F)o2)cc1F)S(C)(=O)=O is above or exactly 2000 fold.
not met

Determine whether this compound has HDAC6 selectivity (fold) no lower than 2000 fold: O=C(c1cncn1CCS(=O)(=O)N(Cc1ccc(-c2nnc(C(F)F)o2)cc1)c1ccccc1)C(F)F
not met
